TARGET: His-hSHIP1 enzyme (Homo sapiens)
Construct: His
Sequence (Q92835 1-1189): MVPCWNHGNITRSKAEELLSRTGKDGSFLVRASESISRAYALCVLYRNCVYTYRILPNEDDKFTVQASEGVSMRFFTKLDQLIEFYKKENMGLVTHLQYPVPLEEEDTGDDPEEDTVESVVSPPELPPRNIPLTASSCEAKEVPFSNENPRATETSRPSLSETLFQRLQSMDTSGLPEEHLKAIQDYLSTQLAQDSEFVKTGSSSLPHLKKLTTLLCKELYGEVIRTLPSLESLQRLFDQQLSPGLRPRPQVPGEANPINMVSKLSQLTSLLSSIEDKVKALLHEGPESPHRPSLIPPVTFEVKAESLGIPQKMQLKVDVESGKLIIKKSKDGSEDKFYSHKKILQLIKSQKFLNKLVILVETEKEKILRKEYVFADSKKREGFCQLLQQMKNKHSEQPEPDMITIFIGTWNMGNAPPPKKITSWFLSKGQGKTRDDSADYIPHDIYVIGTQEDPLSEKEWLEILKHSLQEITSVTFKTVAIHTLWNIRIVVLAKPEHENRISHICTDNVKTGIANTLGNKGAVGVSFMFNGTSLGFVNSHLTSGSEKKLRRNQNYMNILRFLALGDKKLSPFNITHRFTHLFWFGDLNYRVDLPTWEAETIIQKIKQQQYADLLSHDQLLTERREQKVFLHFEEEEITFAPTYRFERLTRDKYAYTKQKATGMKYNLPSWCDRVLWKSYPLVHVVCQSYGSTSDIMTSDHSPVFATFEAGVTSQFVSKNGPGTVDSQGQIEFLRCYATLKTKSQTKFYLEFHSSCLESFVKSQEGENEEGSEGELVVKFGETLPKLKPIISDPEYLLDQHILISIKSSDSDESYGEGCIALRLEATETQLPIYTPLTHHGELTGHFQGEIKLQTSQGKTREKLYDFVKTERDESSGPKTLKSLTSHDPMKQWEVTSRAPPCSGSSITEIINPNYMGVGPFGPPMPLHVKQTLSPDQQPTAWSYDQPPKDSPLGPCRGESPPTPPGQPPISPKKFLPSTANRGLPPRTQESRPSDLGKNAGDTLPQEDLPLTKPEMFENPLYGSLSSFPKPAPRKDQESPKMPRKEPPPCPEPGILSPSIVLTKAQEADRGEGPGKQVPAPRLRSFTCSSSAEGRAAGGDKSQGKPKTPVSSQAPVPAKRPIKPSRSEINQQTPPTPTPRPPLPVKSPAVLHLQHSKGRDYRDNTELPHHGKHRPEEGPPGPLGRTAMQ
EXPERIMENTAL DETAILS: His-hSHIP1 activity, approach 1 (phosphate release from IP4, Biomol Green)
Format: biochemical
CONDITIONS USED: activation of His-hSHIP1; IP4 50 μM; test compound 0-300 μM; no asterisk in Table 2
ENDPOINT: Scoring, Approach 1 (% increase relative to background)

Some compounds with recorded Scoring, Approach 1 (% increase relative to background):
> print(dat)
                                   compound   measured.result
1  COc1cc(OC)cc(C(=O)[C@H]2C(C)=CC[C@H]3C(C)(C)CCC[C@]23C)c1 [Compound No. 51]  ++ (50 ≤ x < 65)
2  Cc1cc(O)cc(C(=O)[C@H]2C(C)C(N)C[C@H]3C(C)(C)CCC[C@]23C)c1.Cl (stereo partly drawn) [Compound No. 22]    + (0 < x < 50)
3  Cc1cc(O)cc(C(=O)[C@H]2[C@H](C)C(C(N)=O)C[C@H]3C(C)(C)CCC[C@]23C)c1 (stereo partly drawn) [Compound No. 65]       +++ (x ≥65)
4  Cc1cc(O)cc(C(=O)[C@H]2[C@H](C)C(=O)C[C@H]3C(C)(C)CCC[C@]23C)c1 [Compound No. 8]    + (0 < x < 50)

Measured on His-hSHIP1 enzyme (Homo sapiens), COc1cc(OC)cc(C(=O)C[C@H]2[C@@H](C)CC[C@H]3C(C)(C)CCC[C@]23C)c1 [Compound No. 46] has a documented Scoring, Approach 1 (% increase relative to background) of ++ (50 ≤ x < 65)

Measured on His-hSHIP1 enzyme (Homo sapiens), Cc1cc(O)cc(C(=O)C2[C@@H](C)[C@H](O)C[C@H]3C(C)(C)CCC[C@]23C)c1 (stereo partly drawn) [Compound No. 9] has a documented Scoring, Approach 1 (% increase relative to background) of + (0 < x < 50)

Measured on His-hSHIP1 enzyme (Homo sapiens), COc1ccc(CN[C@@H]2C[C@H]3C(C)(C)CCC[C@]3(C)[C@@H](C(=O)c3cc(OC)cc(OC)c3)[C@@H]2C)cc1 [Compound No. 54] has a documented Scoring, Approach 1 (% increase relative to background) of ++ (50 ≤ x < 65)

Measured on His-hSHIP1 enzyme (Homo sapiens), COc1cc(C)cc(C(=O)[C@H]2[C@@H](C)[C@H](O)C[C@H]3C(C)(C)CCC[C@]23C)c1 [Compound No. 6] has a documented Scoring, Approach 1 (% increase relative to background) of + (0 < x < 50)

Measured on His-hSHIP1 enzyme (Homo sapiens), CC(=O)N[C@@H]1C[C@H]2C(C)(C)CCC[C@]2(C)[C@@H](C(=O)c2cc(O)cc(O)c2)[C@@H]1C [Compound No. 57] has a documented Scoring, Approach 1 (% increase relative to background) of +++ (x ≥65)

Data provenance is patent US10272081B2.
